SYSTEM_NAME: T1, SBD(∆CDE)-y, substrate-binding domain of human Hsp70 (HSPA1A) lacking αC, αD and αE, with the L542Y mutation (human, UniProt P0DMV8 382-564, L542Y)
T1 construct: Cloned in pET16b (NdeI/XhoI); 15N- or 13C/15N-labelled for NMR, unlabelled (LB medium) for ITC; also called mutant SBD; apo-form SBD; source: E. coli BL21(DE3), purified (HisTrap FF, Factor Xa cleavage, HiTrap Q FF); not shown: His6, N-terminal, cleaved
ASSAY_NOTES: ITC; 1.5 μL injections of 5 mM NR-peptide into 200 μL of 0.1 mM SBD(∆CDE)-y; single-site fit with the stoichiometry fixed as n = 1; triplicate
CONDITION_CONTEXT: both partners purified
ENDPOINT_NAME: pKd
Numbers only, as −log10 of the molar value.

Request: Tell us which pKd value is on record for NRLLLTG (Model client peptide of Hsp70; also called NRLLLTG; client-peptide) [NR-peptide]
Result: 2.82
